# Test system: DHL10 Bax/Bak-deficient cells, cytotoxicity, MTS absorbance
# protocol_description: cytotoxicity in Bax/Bak-deficient DHL10 cells, late-stage follow-up, counter-screen for MCL1-BIM inhibitor project, cell-based, MTS absorbance, EC50 (AID 493058)
Active and inactive are the calls of the source.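 How the source made its calls: active means EC50 of 10 µM or lower; inactive means EC50 above 10 µM.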
Outcome codes: T (active), F (inactive)

{"compound": "COc1cccc(NC(=O)CN(C)C(=O)c2cc(-c3ccc(C)o3)nc3ccccc23)c1", "system_under_test": "DHL10 Bax/Bak-deficient cells, cytotoxicity, MTS absorbance", "class_label": "F"}
{"compound": "O=C(NCCCN1CCOCC1)c1cc(-c2ccco2)nc2ccccc12", "system_under_test": "DHL10 Bax/Bak-deficient cells, cytotoxicity, MTS absorbance", "class_label": "F"}
{"compound": "COc1cccc(CC(=O)Nc2nnc(Cc3ccc(OC)c(OC)c3)s2)c1", "system_under_test": "DHL10 Bax/Bak-deficient cells, cytotoxicity, MTS absorbance", "class_label": "F"}
{"compound": "O=C(Nc1cccc(S(=O)(=O)NC2=NCCCCC2)c1)c1cc(-c2ccco2)nc2ccccc12", "system_under_test": "DHL10 Bax/Bak-deficient cells, cytotoxicity, MTS absorbance", "class_label": "F"}
{"compound": "O=C(c1cc(-c2ccco2)nc2ccccc12)N1CCN(Cc2ccccc2)CC1", "system_under_test": "DHL10 Bax/Bak-deficient cells, cytotoxicity, MTS absorbance", "class_label": "F"}
{"compound": "Cc1cccc(NC(=O)c2cc(-c3ccc(C)o3)nc3ccccc23)n1", "system_under_test": "DHL10 Bax/Bak-deficient cells, cytotoxicity, MTS absorbance", "class_label": "F"}
{"compound": "Cc1ccnc(NC(=O)c2cc(-c3ccc(C)o3)nc3ccccc23)c1", "system_under_test": "DHL10 Bax/Bak-deficient cells, cytotoxicity, MTS absorbance", "class_label": "F"}
{"compound": "CCCCn1c(N)c(N(CC(C)C)C(=O)c2cc(-c3ccco3)nc3ccccc23)c(=O)[nH]c1=O", "system_under_test": "DHL10 Bax/Bak-deficient cells, cytotoxicity, MTS absorbance", "class_label": "F"}
{"compound": "COc1ccc(NC(=O)c2cc(-c3ccco3)nc3ccccc23)cc1S(=O)(=O)N1CCOCC1", "system_under_test": "DHL10 Bax/Bak-deficient cells, cytotoxicity, MTS absorbance", "class_label": "F"}
{"compound": "Cc1ccc(-c2cc(C(=O)N3CCN(c4ncccn4)CC3)c3cc(Br)ccc3n2)o1", "system_under_test": "DHL10 Bax/Bak-deficient cells, cytotoxicity, MTS absorbance", "class_label": "F"}
{"compound": "COc1ccc(NC(=O)c2cc(-c3ccco3)nc3ccccc23)cn1", "system_under_test": "DHL10 Bax/Bak-deficient cells, cytotoxicity, MTS absorbance", "class_label": "F"}
{"compound": "COc1cccc(NC(=O)CN(C)C(=O)c2cc(-c3ccco3)nc3ccccc23)c1", "system_under_test": "DHL10 Bax/Bak-deficient cells, cytotoxicity, MTS absorbance", "class_label": "F"}
{"compound": "O=C(CCn1nnc2ccccc21)Nc1nnc(Cc2ccc(F)cc2)s1", "system_under_test": "DHL10 Bax/Bak-deficient cells, cytotoxicity, MTS absorbance", "class_label": "F"}
{"compound": "COc1ccc(Cc2nnc(NC(=O)C(F)c3ccccc3)s2)cc1OC (configuration not stated)", "system_under_test": "DHL10 Bax/Bak-deficient cells, cytotoxicity, MTS absorbance", "class_label": "F"}
{"compound": "O=C(CCn1nnc2ccccc21)Nc1nnc(Cc2ccccc2)s1", "system_under_test": "DHL10 Bax/Bak-deficient cells, cytotoxicity, MTS absorbance", "class_label": "F"}
{"compound": "Cc1ccc(-c2cc(C(=O)Nc3ccccc3C(N)=O)c3ccccc3n2)o1", "system_under_test": "DHL10 Bax/Bak-deficient cells, cytotoxicity, MTS absorbance", "class_label": "F"}
{"compound": "O=C(Nc1cccnc1)c1cc(-c2ccco2)nc2ccc(Br)cc12", "system_under_test": "DHL10 Bax/Bak-deficient cells, cytotoxicity, MTS absorbance", "class_label": "F"}
{"compound": "Cc1ccc(-c2cc(C(=O)N3CC(C)OC(C)C3)c3ccccc3n2)o1 (configuration not stated)", "system_under_test": "DHL10 Bax/Bak-deficient cells, cytotoxicity, MTS absorbance", "class_label": "F"}
{"compound": "O=C(c1cc(-c2ccco2)nc2ccccc12)N1CCCC(C(F)(F)F)C1 (configuration not stated)", "system_under_test": "DHL10 Bax/Bak-deficient cells, cytotoxicity, MTS absorbance", "class_label": "F"}
{"compound": "COc1ccc(Cc2nnc(NC(=O)C3(c4ccccc4)CC3)s2)cc1OC", "system_under_test": "DHL10 Bax/Bak-deficient cells, cytotoxicity, MTS absorbance", "class_label": "F"}
{"compound": "CCOc1cc(N2CCOCC2)c(OCC)cc1NC(=O)c1cc(-c2ccco2)nc2ccccc12", "system_under_test": "DHL10 Bax/Bak-deficient cells, cytotoxicity, MTS absorbance", "class_label": "F"}
{"compound": "Cc1ccc(-c2cc(C(=O)N3CCCC(C(F)(F)F)C3)c3ccccc3n2)o1 (configuration not stated)", "system_under_test": "DHL10 Bax/Bak-deficient cells, cytotoxicity, MTS absorbance", "class_label": "F"}
{"compound": "COc1ccc(Cc2nnc(NC(=O)Cc3ccncc3)s2)cc1OC", "system_under_test": "DHL10 Bax/Bak-deficient cells, cytotoxicity, MTS absorbance", "class_label": "F"}
{"compound": "O=C(Nc1ccccn1)c1cc(-c2ccco2)nc2ccc(Br)cc12", "system_under_test": "DHL10 Bax/Bak-deficient cells, cytotoxicity, MTS absorbance", "class_label": "T"}
{"compound": "Cc1ccc(-c2cc(C(=O)Nc3ccccc3C)c3ccccc3n2)o1", "system_under_test": "DHL10 Bax/Bak-deficient cells, cytotoxicity, MTS absorbance", "class_label": "F"}
{"compound": "COc1ccc(Cc2nnc(NC(=O)C(=O)c3ccco3)s2)cc1OC", "system_under_test": "DHL10 Bax/Bak-deficient cells, cytotoxicity, MTS absorbance", "class_label": "F"}
{"compound": "CN(C)C(=O)c1ccc(NC(=O)c2cc(-c3ccco3)nc3ccccc23)cc1", "system_under_test": "DHL10 Bax/Bak-deficient cells, cytotoxicity, MTS absorbance", "class_label": "F"}
{"compound": "COc1ccc(Cc2nnc(NC(=O)Cc3ccc(-c4ccccc4)cc3)s2)cc1OC", "system_under_test": "DHL10 Bax/Bak-deficient cells, cytotoxicity, MTS absorbance", "class_label": "F"}
{"compound": "COc1ccc(Cc2nnc(NC(=O)Cc3sc(=S)[nH]c3C)s2)cc1OC", "system_under_test": "DHL10 Bax/Bak-deficient cells, cytotoxicity, MTS absorbance", "class_label": "F"}
{"compound": "Cc1nnc(NC(=O)c2cc(-c3ccco3)nc3ccccc23)s1", "system_under_test": "DHL10 Bax/Bak-deficient cells, cytotoxicity, MTS absorbance", "class_label": "F"}
{"compound": "O=C(NC(=S)Nc1cccc(S(=O)(=O)NC2=NCCC2)c1)c1cc(-c2ccco2)nc2ccccc12", "system_under_test": "DHL10 Bax/Bak-deficient cells, cytotoxicity, MTS absorbance", "class_label": "F"}
{"compound": "Cc1ccc(S(=O)(=O)N(C)C)cc1NC(=O)c1cc(-c2ccco2)nc2ccccc12", "system_under_test": "DHL10 Bax/Bak-deficient cells, cytotoxicity, MTS absorbance", "class_label": "F"}
{"compound": "COc1ccc(NC(=O)c2cc(-c3ccc(C)o3)nc3ccccc23)cc1", "system_under_test": "DHL10 Bax/Bak-deficient cells, cytotoxicity, MTS absorbance", "class_label": "F"}
{"compound": "CCCN(C(=O)c1cc(-c2ccco2)nc2ccccc12)c1c(N)n(Cc2ccccc2)c(=O)[nH]c1=O", "system_under_test": "DHL10 Bax/Bak-deficient cells, cytotoxicity, MTS absorbance", "class_label": "F"}
{"compound": "CCc1nnc(NC(=O)c2cc(-c3ccco3)nc3ccccc23)s1", "system_under_test": "DHL10 Bax/Bak-deficient cells, cytotoxicity, MTS absorbance", "class_label": "F"}
{"compound": "COc1ccc(-c2cc(=O)oc3cc(OCC(=O)N4CC4)ccc23)cc1", "system_under_test": "DHL10 Bax/Bak-deficient cells, cytotoxicity, MTS absorbance", "class_label": "F"}
{"compound": "O=C(Nc1nc2ccccc2s1)c1cc(-c2ccco2)nc2ccccc12", "system_under_test": "DHL10 Bax/Bak-deficient cells, cytotoxicity, MTS absorbance", "class_label": "F"}
{"compound": "COc1ccc(Cc2nnc(NC(=O)Cc3cccs3)s2)cc1", "system_under_test": "DHL10 Bax/Bak-deficient cells, cytotoxicity, MTS absorbance", "class_label": "F"}
{"compound": "CCN1CCN(C(=O)c2cc(-c3ccco3)nc3ccccc23)CC1", "system_under_test": "DHL10 Bax/Bak-deficient cells, cytotoxicity, MTS absorbance", "class_label": "F"}
{"compound": "COc1ccc(NC(=O)CN(C)C(=O)c2cc(-c3ccc(C)o3)nc3ccccc23)cc1", "system_under_test": "DHL10 Bax/Bak-deficient cells, cytotoxicity, MTS absorbance", "class_label": "F"}
{"compound": "COc1ccc(NC(=O)c2cc(-c3ccc(C)o3)nc3ccccc23)cc1OC", "system_under_test": "DHL10 Bax/Bak-deficient cells, cytotoxicity, MTS absorbance", "class_label": "F"}
{"compound": "COc1ccc(Cc2nnc(NC(=O)Cc3ccc4c(c3)OCO4)s2)cc1OC", "system_under_test": "DHL10 Bax/Bak-deficient cells, cytotoxicity, MTS absorbance", "class_label": "F"}
